Below: a set of entries, each annotated with reported kinase still bound, per cent of control.
Molecular target: RIPK2 (human)
Assay: KINOMEscan competition binding
Settings: compound 10.0 µM
A number alone suffices; assume %.

Known results for compounds:
CC[C@@H]1C(=O)N(C)c2cnc(Nc3ccc(C(=O)NC4CCN(C)CC4)cc3OC)nc2N1C1CCCC1	100
CCC(=O)N1CCN(c2ccc(-n3c(=O)ccc4cnc5ccc(-c6cnc7ccccc7c6)cc5c43)cc2C(F)(F)F)CC1	44

# input for lookup
Enquiry: Entry C=CC(=O)Nc1cc(NC(=O)c2ccc(C)c(NC(=O)c3ccno3)c2)cc(C(F)(F)F)c1 needs its kinase still bound, per cent of control filled in; supply it.
Return: 100

---

Biological target: PIP5K1C (human) (UniProt O60331)
Sequence (O60331 whole entry, looked up): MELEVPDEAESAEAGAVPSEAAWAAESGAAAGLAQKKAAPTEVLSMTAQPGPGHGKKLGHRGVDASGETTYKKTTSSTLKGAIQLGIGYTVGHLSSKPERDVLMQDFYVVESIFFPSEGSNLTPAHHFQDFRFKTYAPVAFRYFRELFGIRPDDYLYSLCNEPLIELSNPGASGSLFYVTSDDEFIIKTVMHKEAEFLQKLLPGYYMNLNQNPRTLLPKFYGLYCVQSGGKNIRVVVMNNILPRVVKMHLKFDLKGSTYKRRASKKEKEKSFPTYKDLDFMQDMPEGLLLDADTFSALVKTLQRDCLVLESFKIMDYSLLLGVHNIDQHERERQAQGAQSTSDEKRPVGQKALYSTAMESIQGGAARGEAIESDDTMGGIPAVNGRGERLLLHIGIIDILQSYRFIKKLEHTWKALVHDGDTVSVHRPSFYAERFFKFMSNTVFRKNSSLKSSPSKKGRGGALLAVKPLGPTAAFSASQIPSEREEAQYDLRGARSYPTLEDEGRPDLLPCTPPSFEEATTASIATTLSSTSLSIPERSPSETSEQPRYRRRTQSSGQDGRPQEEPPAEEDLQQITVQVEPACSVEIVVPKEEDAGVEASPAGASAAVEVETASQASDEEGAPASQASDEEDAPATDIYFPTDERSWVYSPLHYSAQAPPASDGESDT
Experiment: KINOMEscan competition binding
Details: compound 10.0 µM
Attribute measured: kinase still bound, per cent of control (%)
Use % as the unit, but write only the number.

Enquiry: State its kinase still bound, per cent of control for this molecule: Cc1ccc2nc(NCCN)c3ncc(C)n3c2c1
Return: 92

Enquiry: State, in one line, measured kinase still bound, per cent of control of CCCS(=O)(=O)Nc1ccc(F)c(C(=O)c2c[nH]c3ncc(-c4ccc(Cl)cc4)cc23)c1F
Return: 44

Enquiry: Recall and state the measured kinase still bound, per cent of control for O=C(O)c1ccc(Nc2ncc3c(n2)-c2ccc(Cl)cc2C(c2c(F)cccc2F)=NC3)cc1 .
Return: 49

Enquiry: Please report the measured kinase still bound, per cent of control for C[C@@H](Oc1cc(-n2cnc3ccc(CN4CCN(C)CC4)cc32)sc1C(N)=O)c1ccccc1C(F)(F)F
Return: 18

Enquiry: Fill in kinase still bound, per cent of control for record CCOc1cc2ncc(C#N)c(Nc3ccc(OCc4ccccn4)c(Cl)c3)c2cc1NC(=O)/C=C/CN(C)C
Return: 100

---

Measured kinase still bound, per cent of control by item
Biological target: KIT (human) (UniProt P10721)
Sequence (P10721 whole entry, looked up): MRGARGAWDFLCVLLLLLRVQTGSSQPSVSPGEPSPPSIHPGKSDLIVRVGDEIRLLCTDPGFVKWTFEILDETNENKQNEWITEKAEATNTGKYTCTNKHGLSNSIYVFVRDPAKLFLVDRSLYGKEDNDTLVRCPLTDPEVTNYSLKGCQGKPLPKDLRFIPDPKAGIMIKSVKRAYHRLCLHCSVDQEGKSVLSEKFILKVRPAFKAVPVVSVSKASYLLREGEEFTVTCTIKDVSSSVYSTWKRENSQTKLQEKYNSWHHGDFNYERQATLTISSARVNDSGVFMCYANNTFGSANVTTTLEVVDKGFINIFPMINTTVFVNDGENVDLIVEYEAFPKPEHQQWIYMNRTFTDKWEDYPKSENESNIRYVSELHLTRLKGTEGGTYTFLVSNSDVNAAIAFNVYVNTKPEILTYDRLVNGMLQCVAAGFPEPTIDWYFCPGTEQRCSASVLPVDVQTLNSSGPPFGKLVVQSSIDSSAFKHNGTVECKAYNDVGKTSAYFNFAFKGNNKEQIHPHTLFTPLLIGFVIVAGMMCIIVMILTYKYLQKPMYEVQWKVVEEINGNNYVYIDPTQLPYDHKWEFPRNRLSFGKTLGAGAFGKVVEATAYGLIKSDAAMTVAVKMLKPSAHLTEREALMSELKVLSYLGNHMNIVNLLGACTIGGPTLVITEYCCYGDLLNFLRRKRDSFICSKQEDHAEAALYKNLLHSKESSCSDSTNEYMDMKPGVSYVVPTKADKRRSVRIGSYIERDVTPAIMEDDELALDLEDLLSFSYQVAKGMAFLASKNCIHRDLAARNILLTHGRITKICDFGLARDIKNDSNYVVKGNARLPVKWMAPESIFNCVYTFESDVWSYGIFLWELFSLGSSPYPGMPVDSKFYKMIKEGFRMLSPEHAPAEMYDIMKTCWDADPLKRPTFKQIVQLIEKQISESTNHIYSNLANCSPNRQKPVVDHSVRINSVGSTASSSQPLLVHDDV
Experiment: KINOMEscan competition binding
Conditions: compound 10.0 µM
Output spec: scalar in %, unitless text.

In the examples that follow, each entry is paired with its recorded kinase still bound, per cent of control.
O=C(NC1CC1)c1cccc(-c2ccc3c(NC(=O)C4CC4)n[nH]c3c2)c1	37
Cc1ccc(NC(=O)c2cccc(C(C)(C)C#N)c2)cc1Nc1ccc2ncn(C)c(=O)c2c1	0
Cc1cc([C@@H](C)Nc2ccccc2C(=O)O)c2nc(N3CCOCC3)cc(=O)n2c1	91
C=CC(=O)Nc1cccc(Oc2nc(Nc3ccc(N4CCN(C)CC4)cc3OC)ncc2Cl)c1	34
Cn1c(=O)n(-c2ccc(C(C)(C)C#N)cc2)c2c3cc(-c4cnc5ccccc5c4)ccc3ncc21	100
Cc1ccc2nc(NCCN)c3ncc(C)n3c2c1	37
CCN1CCN(Cc2ccc(Nc3ncc4c(n3)N(C)c3ccccc3C(=O)N4C)cc2C(F)(F)F)CC1	57

Enquiry: Report measured kinase still bound, per cent of control; entry is Nc1ccc(-c2ccc3ncc4ccc(=O)n(-c5cccc(C(F)(F)F)c5)c4c3c2)cn1
Return: 55

---

Reported values of kinase still bound, per cent of control for individual entries
Target: PAK3 (human) (UniProt O75914)
Sequence (O75914 whole entry, looked up): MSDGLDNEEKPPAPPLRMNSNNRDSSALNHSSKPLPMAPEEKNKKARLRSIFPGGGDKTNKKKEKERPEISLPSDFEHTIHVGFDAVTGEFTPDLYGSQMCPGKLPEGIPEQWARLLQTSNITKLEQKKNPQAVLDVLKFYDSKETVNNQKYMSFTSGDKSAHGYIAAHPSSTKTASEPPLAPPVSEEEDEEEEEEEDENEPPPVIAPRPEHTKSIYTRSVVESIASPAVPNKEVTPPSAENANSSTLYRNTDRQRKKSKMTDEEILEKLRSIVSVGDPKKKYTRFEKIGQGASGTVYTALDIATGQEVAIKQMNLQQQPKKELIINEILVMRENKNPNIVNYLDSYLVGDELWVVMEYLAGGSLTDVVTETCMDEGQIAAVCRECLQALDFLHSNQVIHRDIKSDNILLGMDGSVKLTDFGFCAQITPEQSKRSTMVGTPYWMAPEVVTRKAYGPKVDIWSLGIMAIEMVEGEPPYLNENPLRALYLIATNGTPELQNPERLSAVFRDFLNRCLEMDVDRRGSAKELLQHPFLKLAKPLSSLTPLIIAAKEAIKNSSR
Assay: KINOMEscan competition binding
Details: compound 10.0 µM
Value expressed in %; do not type the unit.

Check out these entries, answers already filled in.
C[C@@H](Oc1cc(-n2cnc3ccc(CN4CCN(C)CC4)cc32)sc1C(N)=O)c1ccccc1C(F)(F)F	96
COc1cc(C(=O)NC2CCN(C)CC2)ccc1Nc1ncc2c(n1)N(C1CCCC1)C(C)CC(=O)N2C (stereo not given)	100
Cc1cc([C@@H](C)Nc2ccccc2C(=O)O)c2nc(N3CCOCC3)cc(=O)n2c1	98
O=C(NOC[C@H](O)CO)c1ccc(F)c(F)c1Nc1ccc(I)cc1F	100

Lab note: next compound to report on.
Enquiry: Find the measured kinase still bound, per cent of control of O=C1Nc2ccc(I)cc2/C1=C/c1cc(Br)c(O)c(Br)c1 and report it.
Return: 100

---

Target: BRAF (human)
Assay: KINOMEscan competition binding
Details: compound 10.0 µM
Attribute measured: kinase still bound, per cent of control (%)
Write the answer as a number in %, unit excluded.

Solved entries:
CCCS(=O)(=O)Nc1ccc(F)c(C(=O)c2c[nH]c3ncc(-c4ccc(Cl)cc4)cc23)c1F	0
O=C(NOC[C@H](O)CO)c1ccc(F)c(F)c1Nc1ccc(I)cc1F	98
Cc1cc([C@@H](C)Nc2ccccc2C(=O)O)c2nc(N3CCOCC3)cc(=O)n2c1	100
O=C1Nc2ccc(I)cc2/C1=C/c1cc(Br)c(O)c(Br)c1	0.9

Next up:
Enquiry: Give reported kinase still bound, per cent of control value for CCOc1cc2ncc(C#N)c(Nc3ccc(OCc4ccccn4)c(Cl)c3)c2cc1NC(=O)/C=C/CN(C)C
Return: 95

---

Molecular target: ACVR2B (human)
Assay: KINOMEscan competition binding
Conditions: compound 10.0 µM
Attribute measured: kinase still bound, per cent of control
Please make sure the unit comes right after the number.

Some solved cases for reference:
CCCS(=O)(=O)Nc1ccc(F)c(C(=O)c2c[nH]c3ncc(-c4ccc(Cl)cc4)cc23)c1F	27%
O=C(NOC[C@H](O)CO)c1ccc(F)c(F)c1Nc1ccc(I)cc1F	66%
OCCCNc1cc(-c2ccnc(Nc3cccc(Cl)c3)n2)ccn1	100%

Enquiry: Name the recorded kinase still bound, per cent of control of the item Cc1ccc(NC(=O)c2cccc(C(C)(C)C#N)c2)cc1Nc1ccc2ncn(C)c(=O)c2c1 in your answer.
Return: 100%

Enquiry: Respond only with kinase still bound, per cent of control recorded for CC[C@@H]1C(=O)N(C)c2cnc(Nc3ccc(C(=O)NC4CCN(C)CC4)cc3OC)nc2N1C1CCCC1
Return: 100%

Enquiry: Give recorded kinase still bound, per cent of control. CCN1CCN(Cc2ccc(Nc3ncc4c(n3)N(C)c3ccccc3C(=O)N4C)cc2C(F)(F)F)CC1
Return: 29%

Enquiry: Please report the measured kinase still bound, per cent of control for O=C(O)c1ccc(Nc2ncc3c(n2)-c2ccc(Cl)cc2C(c2c(F)cccc2F)=NC3)cc1
Return: 100%

Enquiry: Supply reported kinase still bound, per cent of control belonging to this molecule: C=CC(=O)Nc1cccc(Oc2nc(Nc3ccc(N4CCN(C)CC4)cc3OC)ncc2Cl)c1
Return: 100%

Enquiry: Consider the molecule COc1cc(C(=O)NC2CCN(C)CC2)ccc1Nc1ncc2c(n1)N(C1CCCC1)C(C)CC(=O)N2C (stereo not given) . State its measured kinase still bound, per cent of control.
Return: 100%

Enquiry: Tell us which kinase still bound, per cent of control value is on record for Cn1c(=O)n(-c2ccc(C(C)(C)C#N)cc2)c2c3cc(-c4cnc5ccccc5c4)ccc3ncc21
Return: 100%

---

Entries annotated with measured kinase still bound, per cent of control
Target: TBK1 (human) (UniProt Q9UHD2)
Sequence (Q9UHD2 whole entry, looked up): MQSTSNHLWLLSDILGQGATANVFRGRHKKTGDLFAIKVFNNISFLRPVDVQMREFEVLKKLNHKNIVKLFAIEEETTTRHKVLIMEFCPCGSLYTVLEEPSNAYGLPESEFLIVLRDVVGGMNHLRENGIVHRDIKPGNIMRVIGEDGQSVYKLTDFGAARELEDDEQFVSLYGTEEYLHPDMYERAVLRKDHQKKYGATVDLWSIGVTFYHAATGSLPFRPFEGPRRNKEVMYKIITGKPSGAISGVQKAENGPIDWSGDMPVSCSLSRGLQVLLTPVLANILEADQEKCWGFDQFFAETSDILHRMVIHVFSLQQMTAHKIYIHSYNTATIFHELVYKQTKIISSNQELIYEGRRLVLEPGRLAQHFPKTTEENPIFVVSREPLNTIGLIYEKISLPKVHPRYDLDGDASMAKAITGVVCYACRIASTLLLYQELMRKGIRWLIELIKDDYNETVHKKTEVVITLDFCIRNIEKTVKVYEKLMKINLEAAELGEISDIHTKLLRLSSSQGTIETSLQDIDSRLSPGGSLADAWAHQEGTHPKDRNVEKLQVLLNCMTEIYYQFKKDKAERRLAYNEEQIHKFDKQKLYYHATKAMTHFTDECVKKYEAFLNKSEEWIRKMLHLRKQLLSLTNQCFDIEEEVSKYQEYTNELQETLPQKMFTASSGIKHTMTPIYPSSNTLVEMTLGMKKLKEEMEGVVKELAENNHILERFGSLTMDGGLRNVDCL
Test: KINOMEscan competition binding
Details: compound 10.0 µM
Write the value in % as a bare number.

// known answers, use as guide
O=C(NOC[C@H](O)CO)c1ccc(F)c(F)c1Nc1ccc(I)cc1F	85
CCC(=O)N1CCN(c2ccc(-n3c(=O)ccc4cnc5ccc(-c6cnc7ccccc7c6)cc5c43)cc2C(F)(F)F)CC1	93
O=C(O)c1ccc(Nc2ncc3c(n2)-c2ccc(Cl)cc2C(c2c(F)cccc2F)=NC3)cc1	100
Cc1ccc(NC(=O)c2cccc(C(C)(C)C#N)c2)cc1Nc1ccc2ncn(C)c(=O)c2c1	100
CCCS(=O)(=O)Nc1ccc(F)c(C(=O)c2c[nH]c3ncc(-c4ccc(Cl)cc4)cc23)c1F	100
C=CC(=O)Nc1cc(NC(=O)c2ccc(C)c(NC(=O)c3ccno3)c2)cc(C(F)(F)F)c1	100
Cc1ccc2nc(NCCN)c3ncc(C)n3c2c1	100
N#Cc1c(NC(=O)c2cccc3ccccc23)sc2c1CCCC2	88

Enquiry: Query kinase still bound, per cent of control for Nc1ccc(-c2ccc3ncc4ccc(=O)n(-c5cccc(C(F)(F)F)c5)c4c3c2)cn1
Return: 100

Enquiry: Give me measured kinase still bound, per cent of control, please, for this compound: CN(C)C/C=C/C(=O)Nc1cccc(Nc2ncc3c(n2)N(C)c2ccccc2C(=O)N3C)c1
Return: 58

Enquiry: Please supply the value of reported kinase still bound, per cent of control for the item C=CC(=O)Nc1cccc(Nc2nc(N[C@H]3CC[C@H](N(C)C)CC3)nc3c2ncn3C(C)C)c1
Return: 84

Enquiry: Please report kinase still bound, per cent of control for the following compound: C[C@@H](Oc1cc(-n2cnc3ccc(CN4CCN(C)CC4)cc32)sc1C(N)=O)c1ccccc1C(F)(F)F
Return: 84

Enquiry: Indicate the recorded kinase still bound, per cent of control value for this compound: Cc1cc([C@@H](C)Nc2ccccc2C(=O)O)c2nc(N3CCOCC3)cc(=O)n2c1
Return: 100

Enquiry: // fetch kinase still bound, per cent of control given entry O=C1Nc2ccc(I)cc2/C1=C/c1cc(Br)c(O)c(Br)c1
Return: 95

Enquiry: Output kinase still bound, per cent of control of Cn1c(=O)n(-c2ccc(C(C)(C)C#N)cc2)c2c3cc(-c4cnc5ccccc5c4)ccc3ncc21
Return: 100

Enquiry: Entry COc1cc(C(=O)NC2CCN(C)CC2)ccc1Nc1ncc2c(n1)N(C1CCCC1)CCC(=O)N2C(C)C needs its kinase still bound, per cent of control filled in; supply it.
Return: 100
